Source of measurements: patent US12466856B2

Test system: Candida albicans ATCC 90029
measurement_description: MIC assay (CLSI M27-A3), Candida albicans ATCC 90029
Assay type: cell-based
experimental_parameters: Candida albicans, ATCC90029; first batch; 24 h, 35° C.; ≥50% growth inhibition; read-out: MIC, Candida albicans ATCC 90029
property_name: MIC (µg/mL)
Write the number in µg/mL without appending the unit.

// solved cases for MIC follow
INSERT INTO assay_data (compound, measurement_unit, measured_result) VALUES
  ('CCCCCOc1ccc(-c2ccc(-c3ccc(C(=O)N[C@H]4C[C@@H](O)[C@@H](OCC5CCCC[N+]5(C)C)NC(=O)[C@@H]5[C@@H](O)[C@@H](C)CN5C(=O)[C@H]([C@@H](C)O)NC(=O)[C@H]([C@H](O)[C@@H](O)c5ccc(O)cc5)NC(=O)[C@@H]5C[C@@H](O)CN5C(=O)[C@H]([C@@H](C)O)NC4=O)cc3)cc2)cc1 (stereo partly drawn)', 'µg/mL', 0.125),
  ('CCCCCOc1ccc(-c2ccc(-c3ccc(C(=O)N[C@H]4C[C@@H](O)[C@@H](OCC[N+]5(C)CCCCC5)NC(=O)[C@@H]5[C@@H](O)[C@@H](C)CN5C(=O)[C@H]([C@@H](C)O)NC(=O)[C@H]([C@H](O)[C@@H](O)c5ccc(O)cc5)NC(=O)[C@@H]5C[C@@H](O)CN5C(=O)[C@H]([C@@H](C)O)NC4=O)cc3)cc2)cc1', 'µg/mL', 0.25);

Prompt: Recall the recorded MIC for "CCCCCOc1ccc(-c2ccc(-c3ccc(C(=O)N[C@H]4C[C@@H](O)[C@@H](OC[C@H]5CCC[N+]5(C)C)NC(=O)[C@@H]5[C@@H](O)[C@@H](C)CN5C(=O)[C@H]([C@@H](C)O)NC(=O)[C@H]([C@H](O)[C@@H](O)c5ccc(O)cc5)NC(=O)[C@@H]5C[C@@H](O)CN5C(=O)[C@H]([C@@H](C)O)NC4=O)cc3)cc2)cc1" with Candida albicans ATCC 90029 and state it.
Response: 0.031

###

Tested on: Candida glabrata ATCC 36583
measurement_description: MIC assay (CLSI M27-A3), Candida glabrata ATCC 36583
Format: cell-based
experimental_parameters: Nakaseomyces glabratus, ATCC36583; second batch; read-out: MIC, Candida glabrata ATCC 36583
This section presents molecules with their documented MIC values.
Write the number in µg/mL without appending the unit.

INSERT INTO assay_data (molecule, property_name, measured_result) VALUES
  ('CCCCCOc1ccc(-c2ccc(-c3ccc(C(=O)N[C@H]4C[C@@H](O)[C@@H](O[C@H]5CC[N+](C)(C)C5)NC(=O)[C@@H]5[C@@H](O)[C@@H](C)CN5C(=O)[C@H]([C@@H](C)O)NC(=O)[C@H]([C@H](O)[C@@H](O)c5ccc(O)cc5)NC(=O)[C@@H]5C[C@@H](O)CN5C(=O)[C@H]([C@@H](C)O)NC4=O)cc3)cc2)cc1 [Example 26]', 'MIC', 0.25);

Prompt: If you can, please state the reported MIC value of CCCCCOc1ccc(-c2ccc(-c3ccc(C(=O)N[C@H]4C[C@@H](O)[C@@H](OC[C@H]5CCC[N+]5(C)C)NC(=O)[C@@H]5[C@@H](O)[C@@H](C)CN5C(=O)[C@H]([C@@H](C)O)NC(=O)[C@H]([C@H](O)[C@@H](O)c5ccc(O)cc5)NC(=O)[C@@H]5C[C@@H](O)CN5C(=O)[C@H]([C@@H](C)O)NC4=O)cc3)cc2)cc1 [Example 13] .
Response: 0.5

Prompt: Another molecule: CCCCCOc1ccc(-c2ccc(-c3ccc(C(=O)N[C@H]4C[C@@H](O)[C@@H](O[C@@H]5CC[N+](C)(C)C5)NC(=O)[C@@H]5[C@@H](O)[C@@H](C)CN5C(=O)[C@H]([C@@H](C)O)NC(=O)[C@H]([C@H](O)[C@@H](O)c5ccc(O)cc5)NC(=O)[C@@H]5C[C@@H](O)CN5C(=O)[C@H]([C@@H](C)O)NC4=O)cc3)cc2)cc1 [Example 25]
Response: 0.25
